We begin with a simple list: items and their reported log10(MIC).
# System: Mycobacterium tuberculosis
# protocol notes: Antibacterial activity against Mycobacterium tuberculosis H37Rv ATCC 27294 after 2 weeks by spot culture growth inhibition assay
# Format: functional
# test settings: H37Rv ATCC 27294, 336 h
recorded endpoint: log10(MIC) (log10 of the value in µM)

compound | log10(MIC)
O=C(O)/C=C/c1ccc2c(c1)OCO2 | 2.49
NNC(=O)c1ccncc1 | -0.14
COC(=O)/C=C/c1cccc(O)c1 | 2.35
COC(=O)/C=C/c1ccc(O)cc1 [METHYL P-HYDROXYCINNAMATE] | 2.35
COC(=O)/C=C/c1ccccc1O | 2.05
O=C(O)/C=C/c1cccc(O)c1 | 2.56
CC(C)=CCOc1ccccc1/C=C/C(=O)O | 2.41
O=C(O)/C=C/c1ccccc1 | 2.43
CC(C)=CCOc1ccc(/C=C/C(=O)O)cc1 | 1.94
CC(C)=CCOc1cccc(/C=C/C(=O)O)c1 | 2.24
CO[C@H]1/C=C/O[C@@]2(C)Oc3c(C)c(O)c4c(O)c(c(/C=N/N5CCN(C)CC5)c(O)c4c3C2=O)NC(=O)/C(C)=C\C=C\[C@H](C)[C@H](O)[C@@H](C)[C@@H](O)[C@@H](C)[C@H](OC(C)=O)[C@@H]1C | -1.22
CC(=O)Nc1ccccc1O | 2.12
COC(=O)/C=C/c1ccc(OC/C=C(\C)CCC=C(C)C)cc1 | 2.10
O=C(O)/C=C/c1ccccc1O | 2.09
COC(=O)/C=C/c1ccc(OCC=C(C)C)cc1 | 1.91
CC(C)=CCC/C(C)=C/COc1ccc(/C=C/C(=O)O)cc1 | 1.82
O=C(O)/C=C/c1ccc(O)cc1 | 2.39
COC(=O)/C=C/c1cccc(OCC=C(C)C)c1 | 2.39

---

We begin with a simple list: items and their reported log10(GI50 at 48 h).
# protocol notes: Cytotoxicity against mouse RAW264.7 cells assessed as growth inhibition after 48 hrs by trypan blue assay
# Assay type: cell-based
recorded endpoint: log10(GI50 at 48 h) (log10 of the value in µM)

compound | log10(GI50 at 48 h)
CC(=O)Nc1ccccc1O | 3.62
CC(=O)Nc1cccc(O)c1 [METACETAMOL] | 3.73
CC(=O)Nc1ccc(O)cc1 [ACETAMINOPHEN] | 3.00
CC(C)=CCC/C(C)=C/COc1ccc(/C=C/C(=O)O)cc1 | 2.32
O=C(O)/C=C/c1ccccc1O [O-COUMARIC ACID] | 3.66
NNC(=O)c1ccncc1 [ISONIAZID] | 4.34
COC(=O)/C=C/c1ccc(OC/C=C(\C)CCC=C(C)C)cc1 | 2.20
COC(=O)/C=C/c1ccc(O)cc1 [METHYL P-HYDROXYCINNAMATE] | 2.78
CO[C@H]1/C=C/O[C@@]2(C)Oc3c(C)c(O)c4c(O)c(c(/C=N/N5CCN(C)CC5)c(O)c4c3C2=O)NC(=O)/C(C)=C\C=C\[C@H](C)[C@H](O)[C@@H](C)[C@@H](O)[C@@H](C)[C@H](OC(C)=O)[C@@H]1C [RIFAMPIN] | 2.93
O=C(O)/C=C/c1ccccc1 [CINNAMIC ACID] | 3.82
COC(=O)/C=C/c1ccc(OCC=C(C)C)cc1 | 2.69
CC(C)=CCOc1ccc(/C=C/C(=O)O)cc1 | 3.13
O=C(O)/C=C/c1ccc(O)cc1 [COUMARIC ACID] | 3.66
O=C(O)/C=C/c1cccc(O)c1 | 3.72
COC(=O)/C=C/c1cccc(O)c1 | 2.93
COC(=O)/C=C/c1ccccc1O | 3.05
